ASSAY PROTOCOL: Pilot PK study of orally applied KB-R7943 in control and STZ-induced diabetic rats (LC-MS/MS)
Assay type: in vivo, rat
TEST CONTEXT: Wistar, rat, plasma, po, 10 mg/kg, STZ-diabetic rats, 10 mg/kg p.o. once
ASSAY METRIC: AUC(0-inf) (ng·h/mL)
Answers are plain numbers, in ng·h/mL.

Request: // query AUC(0-inf) value for entry N=C(N)SCCc1ccc(OCc2ccc([N+](=O)[O-])cc2)cc1 [KB-R7943]
Result: 61.7

----------
ASSAY PROTOCOL: Pilot PK study of orally applied KB-R7943 in control and STZ-induced diabetic rats (LC-MS/MS)
Format: in vivo, rat
TEST CONTEXT: Wistar, rat, hippocampus, po, 10 mg/kg, control rats, 10 mg/kg p.o. once
ASSAY METRIC: Cmax (ng/mL)
One number for each entry, in ng/mL.

Request: Would you mind telling me what Cmax value was observed for N=C(N)SCCc1ccc(OCc2ccc([N+](=O)[O-])cc2)cc1 [KB-R7943] ?
Result: 39.6

----------
ASSAY PROTOCOL: Pilot PK study of orally applied KB-R7943 in control and STZ-induced diabetic rats (LC-MS/MS)
Assay type: in vivo, rat
TEST CONTEXT: Wistar, rat, urine, po, 10 mg/kg, urine, STZ-diabetic rats, 10 mg/kg p.o. once; read-out: AUC(0-24)
ASSAY METRIC: AUC(0-t) (ng·h/mL)
One number for each entry, in ng·h/mL.

Request: If you can, please state the reported AUC(0-t) value of N=C(N)SCCc1ccc(OCc2ccc([N+](=O)[O-])cc2)cc1 [KB-R7943] .
Result: 974

----------
ASSAY PROTOCOL: Pilot PK study of orally applied KB-R7943 in control and STZ-induced diabetic rats (LC-MS/MS)
Assay type: in vivo, rat
TEST CONTEXT: Wistar, rat, heart, po, 10 mg/kg, control rats, 10 mg/kg p.o. once
ASSAY METRIC: Cmax (ng/mL)
Numbers only, in ng/mL.

Request: Record request: Cmax value, item `N=C(N)SCCc1ccc(OCc2ccc([N+](=O)[O-])cc2)cc1`
Result: 893

----------
ASSAY PROTOCOL: Pilot PK study of orally applied KB-R7943 in control and STZ-induced diabetic rats (LC-MS/MS)
Format: in vivo, rat
TEST CONTEXT: Wistar, rat, heart, po, 10 mg/kg, heart, control rats, 10 mg/kg p.o. once; read-out: AUC(0-24) tissue/AUC (0-24) plasma
ASSAY METRIC: Kp
Answers are plain numbers.

Request: Can you look up the measured Kp of `N=C(N)SCCc1ccc(OCc2ccc([N+](=O)[O-])cc2)cc1` for me?
Result: 622
